Test Target: Acetylcholinesterase (RBC) (Homo sapiens, UniProt P22303)
Sequence (P22303-2 with tags, fused parts or gaps limits assumed): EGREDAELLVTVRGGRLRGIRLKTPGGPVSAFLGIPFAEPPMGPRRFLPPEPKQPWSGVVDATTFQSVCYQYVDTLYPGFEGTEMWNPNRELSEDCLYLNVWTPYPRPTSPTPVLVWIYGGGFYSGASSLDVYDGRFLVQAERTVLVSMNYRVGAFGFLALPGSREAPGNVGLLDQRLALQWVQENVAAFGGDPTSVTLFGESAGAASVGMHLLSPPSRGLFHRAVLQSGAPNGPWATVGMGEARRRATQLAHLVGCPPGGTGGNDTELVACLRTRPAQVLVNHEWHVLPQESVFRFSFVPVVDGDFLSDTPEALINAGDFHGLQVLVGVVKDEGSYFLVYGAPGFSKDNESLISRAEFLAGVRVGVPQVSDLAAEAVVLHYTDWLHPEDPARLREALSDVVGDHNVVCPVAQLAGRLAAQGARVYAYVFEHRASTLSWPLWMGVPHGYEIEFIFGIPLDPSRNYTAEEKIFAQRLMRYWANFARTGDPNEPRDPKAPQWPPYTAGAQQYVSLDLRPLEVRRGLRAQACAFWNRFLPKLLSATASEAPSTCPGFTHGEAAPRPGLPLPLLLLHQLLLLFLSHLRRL
Assay Text: biochemical
As shown below, each of these compounds has a reported IC50 value.
Write the value in nM as a bare number.

Some compounds with recorded IC50:
{"Compound": "CCCCNC(=O)Oc1ccc2c(c1)[C@]1(C)CCN(C)[C@@H]1N2C [YU-120, butylcabamoyl eseroline]", "Endpoint Name": "IC50", "Numeric Readout": 17.6}
{"Compound": "CNC(=O)Oc1ccc2c(c1)[C@]1(C)CCN(CCc3ccccc3)[C@@H]1N2C [YU-112, N--phenylethyl physostigmine]", "Endpoint Name": "IC50", "Numeric Readout": 213}
{"Compound": "CN1CC[C@@]2(C)c3cc(OC(=O)NCc4ccccc4)ccc3N(C)[C@@H]12 [YU-69-1, eseroline benzylcarbamate]", "Endpoint Name": "IC50", "Numeric Readout": 26}

Consider the record given below.
Inquiry: Give IC50; test system Acetylcholinesterase (RBC) (Homo sapiens, UniProt P22303); compound CN1CC[C@@]2(C)c3cc(OC(=O)Nc4ccc(Cl)cc4)ccc3N(C)[C@@H]12 [YU-116, chlorophenyl carbamoyleseroline]
Reply text: 654

----------
Test Target: Acetylcholinesterase (Caudate) (Homo sapiens, UniProt P22303)
Assay Text: biochemical
Experimental Parameters: read-out: IC50 Acetylcholinesterase Caudate
Reported values of pIC50 for individual entries
Please express pIC50 as -log10 of the molar concentration.

Inquiry: Look up pIC50 of CNC(=O)Oc1ccc2c(c1)C1(C)CC[N+](C)(C)C1N2C (single isomer, unassigned) [YU-117, methosulfate of (-)physostigmine] and report it.
Reply text: 7.55

Inquiry: Given the compound CN1CC[C@@]2(C)c3cc(OC(=O)Nc4ccccc4)ccc3N(C)[C@@H]12 [YU-79, eseroline phenylcarbamate] , write its reported pIC50.
Reply text: 7.68

----------
Test Target: Acetylcholinesterase (Cortex) (Homo sapiens, UniProt P22303)
Sequence (P22303 32-614): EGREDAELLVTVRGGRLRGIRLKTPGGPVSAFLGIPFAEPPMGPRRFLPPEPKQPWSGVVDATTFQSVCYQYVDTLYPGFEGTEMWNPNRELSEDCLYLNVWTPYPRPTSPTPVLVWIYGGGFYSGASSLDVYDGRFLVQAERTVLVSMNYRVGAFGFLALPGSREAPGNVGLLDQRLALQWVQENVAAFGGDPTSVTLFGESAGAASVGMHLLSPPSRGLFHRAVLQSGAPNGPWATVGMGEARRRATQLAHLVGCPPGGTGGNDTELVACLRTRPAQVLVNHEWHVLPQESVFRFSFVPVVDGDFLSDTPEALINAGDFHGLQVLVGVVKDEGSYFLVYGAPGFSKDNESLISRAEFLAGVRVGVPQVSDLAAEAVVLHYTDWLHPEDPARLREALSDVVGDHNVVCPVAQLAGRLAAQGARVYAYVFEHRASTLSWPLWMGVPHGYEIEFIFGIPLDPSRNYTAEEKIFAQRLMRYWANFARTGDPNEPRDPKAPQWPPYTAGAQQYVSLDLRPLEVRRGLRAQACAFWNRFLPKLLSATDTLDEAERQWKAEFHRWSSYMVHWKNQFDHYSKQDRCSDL
Assay Text: biochemical
Endpoint Name: pIC50
pIC50 here is simply -log10 of the concentration when that concentration is written in mol/L.

Below: 3 compounds and their reported pIC50.
{"Compound": "CN1CC[C@@]2(C)c3cc(OC(=O)Nc4ccc(Cl)cc4)ccc3N(C)[C@@H]12", "pIC50": 6.38}
{"Compound": "CNC(=O)Oc1ccc2c(c1)[C@]1(C)CCN(CCc3ccccc3)[C@@H]1N2C", "pIC50": 6.81}
{"Compound": "CN1CC[C@@]2(C)c3cc(OC(=O)NCc4ccccc4)ccc3N(C)[C@@H]12 [YU-69-1, eseroline benzylcarbamate]", "pIC50": 7.62}

Now consider a different compound.
Inquiry: Consider the compound `CCCCNC(=O)Oc1ccc2c(c1)[C@]1(C)CCN(C)[C@@H]1N2C` tested on Acetylcholinesterase (Cortex) (Homo sapiens, UniProt P22303); state its pIC50.
Reply text: 7.68

----------
Test Target: Acetylcholinesterase (Cortex) (Homo sapiens, UniProt P22303)
Assay Text: biochemical
Experimental Parameters: read-out: IC50 Acetylcholinesterase Cortex
Endpoint Name: IC50 (nM)
Write the value in nM as a bare number.

{"Compound": "CNC(=O)Oc1ccc2c(c1)C1(C)CC[N+](C)(C)C1N2C (single isomer, unassigned) [YU-117, methosulfate of (-)physostigmine]", "IC50 [nM]": 37.1}

// next entry
Inquiry: Fill: IC50 (Acetylcholinesterase (Cortex) (Homo sapiens, UniProt P22303)) for this compound CN1CC[C@@]2(C)c3cc(OC(=O)Nc4ccccc4)ccc3N(C)[C@@H]12 [YU-79, eseroline phenylcarbamate]
Reply text: 36

----------
Test Target: Butyrylcholinesterase (Cortex) (Homo sapiens)
Sequence (P06276 29-602): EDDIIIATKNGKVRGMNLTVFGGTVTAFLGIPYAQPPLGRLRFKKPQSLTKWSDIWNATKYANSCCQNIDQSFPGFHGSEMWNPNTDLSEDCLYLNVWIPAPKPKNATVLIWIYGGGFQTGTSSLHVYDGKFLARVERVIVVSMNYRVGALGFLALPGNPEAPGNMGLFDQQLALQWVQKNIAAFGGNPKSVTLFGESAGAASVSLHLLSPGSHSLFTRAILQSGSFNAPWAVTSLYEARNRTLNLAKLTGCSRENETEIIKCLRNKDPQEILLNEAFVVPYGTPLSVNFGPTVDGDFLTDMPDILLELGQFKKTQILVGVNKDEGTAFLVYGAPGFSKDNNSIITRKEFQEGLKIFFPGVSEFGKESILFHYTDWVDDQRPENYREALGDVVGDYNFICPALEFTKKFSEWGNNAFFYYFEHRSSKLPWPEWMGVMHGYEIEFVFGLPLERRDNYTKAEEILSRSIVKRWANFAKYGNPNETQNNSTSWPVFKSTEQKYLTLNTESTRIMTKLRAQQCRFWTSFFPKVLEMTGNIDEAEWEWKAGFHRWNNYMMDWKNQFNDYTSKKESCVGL
Assay Text: biochemical
pIC50: −log10 of the molar value.
Could you label it satisfied if measured pIC50 is 7 or higher, and not satisfied otherwise?

Inquiry: Would you say `COc1ccc(NC(=O)Oc2ccc3c(c2)[C@]2(C)CCN(C)[C@@H]2N3C)cc1` shows pIC50 at minimum 7?
Reply text: not satisfied

----------
Test Target: Acetylcholinesterase (RBC) (Homo sapiens)
Assay Text: biochemical
Experimental Parameters: read-out: IC50 Acetylcholinesterase RBC
Endpoint Name: pIC50
Quick note: pIC50 values are minus log10 of concentrations in mol/L.

{"Molecule": "CN1CC[C@@]2(C)c3cc(OC(=O)Nc4ccccc4)ccc3N(C)[C@@H]12 [YU-79, eseroline phenylcarbamate]", "Test Target": "Acetylcholinesterase (RBC) (Homo sapiens)", "pIC50": 7.62}

// next entry
Inquiry: State recorded pIC50 with Acetylcholinesterase (RBC) (Homo sapiens), entry CNC(=O)Oc1ccc2c(c1)C1(C)CC[N+](C)(C)C1N2C (single isomer, unassigned) [YU-117, methosulfate of (-)physostigmine] , no comment.
Reply text: 7.53

----------
Test Target: Acetylcholinesterase (Eel) (Electrophorus electricus, UniProt O42275)
Sequence (O42275 24-633): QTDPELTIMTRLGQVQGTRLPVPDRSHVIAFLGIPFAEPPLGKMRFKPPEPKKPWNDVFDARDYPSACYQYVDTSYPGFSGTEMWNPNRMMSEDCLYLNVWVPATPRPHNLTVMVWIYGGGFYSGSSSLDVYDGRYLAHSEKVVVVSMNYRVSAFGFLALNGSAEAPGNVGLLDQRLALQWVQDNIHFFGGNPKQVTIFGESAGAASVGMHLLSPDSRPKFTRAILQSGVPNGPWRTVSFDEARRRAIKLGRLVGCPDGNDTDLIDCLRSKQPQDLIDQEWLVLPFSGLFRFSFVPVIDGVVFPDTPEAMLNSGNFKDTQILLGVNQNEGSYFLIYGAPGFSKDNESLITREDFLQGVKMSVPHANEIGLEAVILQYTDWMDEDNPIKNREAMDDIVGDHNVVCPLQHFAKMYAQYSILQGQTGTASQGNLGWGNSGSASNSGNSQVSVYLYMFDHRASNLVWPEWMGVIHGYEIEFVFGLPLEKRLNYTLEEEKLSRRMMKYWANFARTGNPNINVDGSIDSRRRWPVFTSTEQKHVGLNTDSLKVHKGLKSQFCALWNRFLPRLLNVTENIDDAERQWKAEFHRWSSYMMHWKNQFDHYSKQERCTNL
Assay Text: biochemical
Endpoint Name: pIC50
Please express pIC50 as -log10 of the molar concentration.

Solved entries (count: 4):
{"Molecule": "CN1CC[C@@]2(C)c3cc(OC(=O)Nc4ccc(Cl)cc4)ccc3N(C)[C@@H]12", "Endpoint Name": "pIC50", "Numeric Readout": 5.74}
{"Molecule": "CN1CC[C@@]2(C)c3cc(OC(=O)NCc4ccccc4)ccc3N(C)[C@@H]12 [YU-69-1, eseroline benzylcarbamate]", "Endpoint Name": "pIC50", "Numeric Readout": 6.34}
{"Molecule": "C=CC[N+](C)(C)c1ccc(CCC(=O)CCc2ccc([N+](C)(C)CC=C)cc2)cc1 [BW284c51, reference compound]", "Endpoint Name": "pIC50", "Numeric Readout": 8.14}
{"Molecule": "COc1ccc(NC(=O)Oc2ccc3c(c2)[C@]2(C)CCN(C)[C@@H]2N3C)cc1", "Endpoint Name": "pIC50", "Numeric Readout": 5.77}

Then this molecule:
Inquiry: Using known records, supply pIC50 for `CCCCNC(=O)Oc1ccc2c(c1)[C@]1(C)CCN(C)[C@@H]1N2C`
Reply text: 6.82

----------
Test Target: Acetylcholinesterase (Eel) (Electrophorus electricus)
Assay Text: biochemical
Experimental Parameters: read-out: IC50 Acetylcholinesterase Eel
Form field: IC50 (one value per entry).
Dear colleague, please return just the value in nM, with no unit written.

{"Molecule": "CN1CC[C@@]2(C)c3cc(OC(=O)Nc4ccccc4)ccc3N(C)[C@@H]12 [YU-79, eseroline phenylcarbamate]", "Numeric Readout": 350}

Proceed to the following item.
Inquiry: Query IC50 for CNC(=O)Oc1ccc2c(c1)C1(C)CC[N+](C)(C)C1N2C (single isomer, unassigned) [YU-117, methosulfate of (-)physostigmine]
Reply text: 33.5

----------
Test Target: Acetylcholinesterase (RBC) (Homo sapiens)
Assay Text: biochemical
IC50 values for the compounds below.

Consider the following illustrative entries.
{"Compound": "CN1CC[C@@]2(C)c3cc(O)ccc3N(C)[C@@H]12 [(-)eseroline, (-)-eseroline, reference compound]", "Endpoint Name": "IC50", "Result": "> 10 µM"}
{"Compound": "CN1CC[C@@]2(C)c3cc(O)ccc3N(C)[C@@H]12 (relative stereo) [(+/-)eseroline, reference compound]", "Endpoint Name": "IC50", "Result": "> 10 µM"}

Let us move to another entry and its IC50.
Inquiry: Return value of IC50 for input CN1CC[C@]2(C)c3cc(O)ccc3N(C)[C@H]12 [(+)eseroline, reference compound] , no commentary.
Reply text: > 10 µM

----------
Test Target: UniProt:P06276
Assay Text: biochemical
Endpoint Name: pIC50
Please keep in mind that pIC50 is minus log10 of the molar concentration; only the number is needed.

Here's what some known entries look like.
{"Compound": "CN1CC[C@@]2(C)c3cc(OC(=O)NCc4ccccc4)ccc3N(C)[C@@H]12 [YU-69-1, eseroline benzylcarbamate]", "pIC50": 7.70}
{"Compound": "CCCCNC(=O)Oc1ccc2c(c1)[C@]1(C)CCN(C)[C@@H]1N2C", "pIC50": 7.80}

Inquiry: Return value of pIC50 for input `CN1CC[C@@]2(C)c3cc(OC(=O)Nc4ccc(Cl)cc4)ccc3N(C)[C@@H]12` , no commentary.
Reply text: 5.35

Inquiry: State its pIC50: `C=CCN1CC[C@@]2(C)c3cc(OC(=O)NC)ccc3N(C)[C@@H]12`
Reply text: 7.81

Inquiry: For CCCCCCCCNC(=O)Oc1ccc2c(c1)[C@]1(C)CCN(C)[C@@H]1N2C [YU-71, eseroline octylcarbamate] , write its pIC50.
Reply text: 8.06

----------
IC50 listing for selected compounds.
Test Target: Acetylcholinesterase (Eel) (Electrophorus electricus, UniProt O42275)
Assay Text: biochemical

Inquiry: Using known records, supply IC50 for CN1CC[C@]2(C)c3cc(O)ccc3N(C)[C@H]12 [(+)eseroline, reference compound]
Reply text: > 10 µM

Inquiry: Report measured IC50; entry is CN1CC[C@@]2(C)c3cc(O)ccc3N(C)[C@@H]12 (relative stereo) [(+/-)eseroline, reference compound]
Reply text: > 10 µM

Inquiry: For the compound CC(C)NP(=O)(NC(C)C)OP(=O)(NC(C)C)NC(C)C [iso-OMPA, reference compound] , give its reported IC50.
Reply text: > 1000 µM

Inquiry: Return IC50 (reported value) for this compound: CN1CC[C@@]2(C)c3cc(O)ccc3N(C)[C@@H]12 [(-)eseroline, (-)-eseroline, reference compound]
Reply text: > 10 µM

Source listed as patent US4900748A.
